Measured values drawn from patent US6894054B2 for this set.

Below, each of the compounds is paired with its reported pIC50 value.
target.system: rat glycine transporter subtype 2 (GlyT2) (Rattus norvegicus, UniProt P58295)
Sequence (P58295 whole entry): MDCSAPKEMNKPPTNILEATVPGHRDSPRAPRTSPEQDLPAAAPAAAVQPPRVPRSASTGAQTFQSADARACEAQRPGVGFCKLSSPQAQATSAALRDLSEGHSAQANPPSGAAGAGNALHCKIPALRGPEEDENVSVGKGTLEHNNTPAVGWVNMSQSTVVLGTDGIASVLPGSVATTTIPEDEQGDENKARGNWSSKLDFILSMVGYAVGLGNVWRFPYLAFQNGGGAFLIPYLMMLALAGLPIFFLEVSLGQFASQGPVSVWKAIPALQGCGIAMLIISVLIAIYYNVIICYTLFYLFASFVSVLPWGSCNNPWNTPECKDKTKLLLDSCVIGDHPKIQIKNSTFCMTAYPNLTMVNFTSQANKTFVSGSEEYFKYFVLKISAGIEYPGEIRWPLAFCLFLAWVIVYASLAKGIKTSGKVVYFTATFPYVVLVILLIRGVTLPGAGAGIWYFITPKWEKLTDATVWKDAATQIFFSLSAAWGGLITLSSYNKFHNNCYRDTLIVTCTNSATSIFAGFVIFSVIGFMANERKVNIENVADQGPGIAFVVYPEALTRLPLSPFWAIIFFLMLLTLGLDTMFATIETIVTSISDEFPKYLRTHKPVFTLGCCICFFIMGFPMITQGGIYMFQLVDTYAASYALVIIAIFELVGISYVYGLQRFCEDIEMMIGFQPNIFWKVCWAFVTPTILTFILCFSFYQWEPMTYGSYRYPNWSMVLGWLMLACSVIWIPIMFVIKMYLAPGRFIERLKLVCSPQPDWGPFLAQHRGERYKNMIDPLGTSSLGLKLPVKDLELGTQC
measurement.description: Inhibition of glycine transporter 2: 3H-glycine uptake in CHO cells expressing rat GlyT2
condition.info: GlyT2 inhibitory concentration, 15 min preincubation, 10 nM 3H-glycine, 7 min uptake, read-out: GlyT2 Inhib.
Experimental: CHO cells expressing rat glycine transporter subtype 2 (GlyT2) were grown in high glucose Dulbecco's modified Eagle's medium supplemented with 10% bovine fetal serum at 37° C. in a 5% CO2 atmosphere. […] Cells were washed 3 times with ice-cold PBS, and radioactivity was determined by scintillation counting using TopCount. […]
In textbook form, pIC50 equals minus log to base ten of the concentration in mol/L.

| compound | measured.number |
| --- | --- |
| CCn1nc(C)cc1-c1nnc(SCc2ccccc2)n1-c1ccccc1 [Compound 7] | 5.18 |
| Clc1cccc(Cl)c1CSc1nnc(-c2cnccn2)s1 [Compound 12] | 6.05 |

Kindly consider the entry below.
State the recorded pIC50 for this entry: c1ccc(CSc2nnc(CCCCc3nnc(SCc4ccccc4)o3)o2)cc1 [Compound 21]
5.96
